# Tested on: DeltatarO mutant
# procedure-text: S. aureus survival, RN4220 and DeltatarO strains – OD600, teichoic acid synthesis inhibitors, primary screen (AID 463173)
# condition-label: S. aureus RN4220 wild type/DeltatarO growth, OD600, 18 h, active compounds read low, screened at 18.75 µg/mL (by protocol)
Out of some 52,000 compounds screened, about 4,300 (8.3%) were called active. Only a selection was taken, and actives are over-represented in it overall.
Just a reminder that ties go to condition not met: only survival strictly below 70% counts as condition met.

smiles-text	label
Cc1ccc(C)c(NC(=O)c2ccc3c(c2)CCCN3S(C)(=O)=O)c1	condition not met
CCS(=O)(=O)N1CCc2cc(C(=O)Nc3cc(C)cc(C)c3)ccc21	condition not met
O=C(NCCCc1nc2ccccc2n1Cc1ccccc1Cl)c1ccco1	condition met
CCOC(=O)c1cnc2c(ccc3ccccc32)c1Nc1cccc(Cl)c1	condition met
CCS(=O)(=O)N1CCCc2cc(C(=O)Nc3cc([N+](=O)[O-])ccc3C)ccc21	condition met
CCS(=O)(=O)N1CCc2cc(C(=O)Nc3cc([N+](=O)[O-])ccc3C)ccc21	condition met
CC(C)OCCCn1c(SCc2ccccc2C#N)nc2c(sc3ccccc32)c1=O	condition not met

###

# Test system: DeltatarO mutant
# procedure-text: S. aureus survival, RN4220 and DeltatarO strains – OD600, teichoic acid synthesis inhibitors, primary screen (AID 463173)
# condition-label: S. aureus RN4220 wild type/DeltatarO growth, OD600, 18 h, screened at 18.75 µg/mL (by protocol)
Hit rate of the full screen: of about 52,000 compounds, about 4,300 (8.3%) were called active. Cut-off read from the data, not from the text of the source: active = survival mostly below about 52% (no sharp cut-off); inactive = mostly above about 56%. The sample as a whole holds a higher share of actives than the screen did.
Classes used: active, inactive

compound	label
O=C(Nc1ccccc1)C1CCN(C(=O)c2cccs2)CC1	active
CCn1cc(C(=O)NCCc2ccc(Cl)cc2)c(=O)c2cc(S(=O)(=O)N3CCc4ccccc4C3)ccc21	active
CCOC(=O)C(=O)Nc1c(C(=O)Nc2cccc(F)c2)oc2ccccc12	inactive
O=C(Cn1cc(SCc2ccccc2F)c2ccccc21)N1CCCCC1	inactive
COc1ccc(NC(=O)CSc2nc3cc(OC)c(OC)cc3c3nc(-c4ccccc4)nn23)cc1Cl	inactive
COc1ccc2c(c1)CC(C(=O)Nc1cc(OC)c(OC)c(OC)c1)CO2 (stereo not given)	inactive
Cc1nn(-c2ccccc2)c2c1N(CCCC(=O)NCc1ccc(Cl)cc1)C(=O)CS2	inactive
COc1ccc(-c2cc3nc(C)c(CCC(=O)Nc4cccc(C(F)(F)F)c4)c(C)n3n2)c(OC)c1	inactive
CC(=O)c1ccc(NC(=O)C2CCCN(S(=O)(=O)c3cn(C)cn3)C2)cc1 (stereo not given)	inactive
Cc1cccc(NC(=O)c2ccc3c(c2)CCN3S(=O)(=O)c2ccccc2)c1C	active
CC12CN3CC(C)(CN(C1)C3(C)CSc1c[nH]c3ccccc13)C2=O (stereo not given)	inactive
Cc1ccc(Cn2c(=O)n(Cc3ccccc3)c(=O)c3oc4ccccc4c32)cc1	inactive
Cc1cc(N2CCC(C)CC2)nc2ccc(NC(=O)CCC(=O)N3CCN(c4ccccc4F)CC3)cc12	inactive
CCc1nn2c(-c3ccccc3OC)ccnc2c1-c1ccccc1	active
COC(=O)c1ccccc1NC(=O)c1cc2ccccn2n1	inactive
CN(C)CCCN(C(=O)c1ccc2c(c1)OCCO2)c1nc2ccccc2s1	inactive
Cc1ccc(S(=O)(=O)N2CCc3cc(C(=O)Nc4ccc(C)c(C)c4)ccc32)cc1	inactive
CCOc1ccc(CCNC(=O)c2cn(C)c3ccc(S(=O)(=O)N4CCOCC4)cc3c2=O)cc1OCC	active
CCOc1ccc(CCNC(=O)c2cn(C)c3ccc(S(=O)(=O)N4CCCCC4)cc3c2=O)cc1OCC	inactive
COc1cccc(CC(=O)Nc2ccc3nc(N4CCC(C)CC4)cc(C)c3c2)c1	inactive
CC(=O)c1ccc(S(=O)(=O)Nc2cccc(-c3ccc(N4CCCCC4)nn3)c2)cc1	inactive
COc1ccc(NC(=O)c2c(NC(=O)COc3ccc(Cl)cc3)sc3c2CCCCC3)cc1	inactive
O=C(Nc1ccc(Cl)cc1)C1CCN(S(=O)(=O)c2ccc(Br)s2)CC1	active
O=C(Nc1ccc(OC(F)(F)F)cc1)C1CCCN(S(=O)(=O)c2ccc(Br)s2)C1 (stereo not given)	inactive
COc1ccc(-c2ccnc3c(-c4ccc(F)cc4)c(C)nn23)cc1OC	inactive
CCn1cc(C(=O)NC(C)c2ccccc2)c(=O)c2cc(S(=O)(=O)N3CCc4ccccc4C3)ccc21 (stereo not given)	inactive
Cc1c(Cl)cccc1NC(=O)c1ccc2c(c1)CCCN2S(C)(=O)=O	inactive
CCn1cc(C(=O)NCCc2ccc(C)cc2)c(=O)c2cc(S(=O)(=O)N3CCc4ccccc4C3)ccc21	inactive
Cc1ccc(Cl)cc1N1CCN(C(=O)CCC(=O)Nc2ccc3nc(N4CCC(C)CC4)cc(C)c3c2)CC1	inactive
CCc1nn2c(-c3ccccc3OC)ccnc2c1-c1ccc(F)cc1	active
Cn1cnc(S(=O)(=O)N2CCCC(C(=O)Nc3ccc(OC(F)(F)F)cc3)C2)c1 (stereo not given)	active
Cc1cc(N2CCN(C)CC2)nc2ccc(NC(=O)Nc3ccccc3Br)cc12	inactive
CCS(=O)(=O)N1CCc2cc(C(=O)Nc3cccc(Cl)c3C)ccc21	inactive
Cc1c(Cl)cccc1NC(=O)c1ccc2c(c1)CCN2S(=O)(=O)c1ccccc1	active
Cc1ccc(C)c(NC(=O)c2ccc3c(c2)CCN3S(C)(=O)=O)c1	inactive
O=C(Nc1ccc(OC(F)(F)F)cc1)C1CCN(S(=O)(=O)c2ccc3[nH]c(=O)ccc3c2)CC1	inactive
COc1ccc(CCNS(=O)(=O)c2c(C)nc3sccn3c2=O)cc1OC	inactive
Cc1cc(N2CCC(C)CC2)nc2ccc(NC(=O)Cc3c(F)cccc3Cl)cc12	inactive
Cc1cc(N2CCC(C)CC2)nc2ccc(NC(=O)Cc3ccccc3Br)cc12	active
Cc1cc(Cl)ccc1NC(=O)C1CCN(c2nnc(-n3c(C)ccc3C)s2)CC1	inactive

src = PubChem BioAssay AID463173
